tested-on: hRSV RNA-dependent RNA polymerase (RdRp) complex with M2-1 (L, P, N, M2-1 minigenome) (Human respiratory syncytial virus A2, UniProt P04545)
Construct: pN, pP, pL and pM2-1 plasmids (T7 promoter) in BSR-T7/5 (BHK-21) cells with pM/Luc minigenome; strain printed for the virus only, not for the plasmids; M2-1 tetrameric; with RNA-directed RNA polymerase L; Phosphoprotein; Nucleoprotein
Sequence (P04545 whole entry, looked up, one chain of several): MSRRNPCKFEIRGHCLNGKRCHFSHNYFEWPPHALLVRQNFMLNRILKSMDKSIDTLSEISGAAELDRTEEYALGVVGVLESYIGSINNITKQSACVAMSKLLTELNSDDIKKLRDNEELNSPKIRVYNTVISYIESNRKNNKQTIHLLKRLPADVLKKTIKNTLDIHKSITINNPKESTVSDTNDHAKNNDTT
assay-text: hRSV minigenome luciferase reporter assay in transfected BSR-T7/[…] cells
experimental-endpoint: pIC50
Answers are plain numbers, as −log10 of the molar value.

Query block: What does the record list as pIC50 for CC1=C2C[C@H]3[C@@H](CC=C4C[C@@H](O)CC[C@@]43C)[C@@H]2CC[C@]12O[C@@H]1C[C@H](C)CN[C@H]1[C@H]2C [cyclopamine] ?
Result block: 6.42
